These measurements were taken from paper PMC6450887.

Target: human D-amino acid oxidase (hDAAO) (Homo sapiens, UniProt P14920)
Sequence (P14920 whole entry): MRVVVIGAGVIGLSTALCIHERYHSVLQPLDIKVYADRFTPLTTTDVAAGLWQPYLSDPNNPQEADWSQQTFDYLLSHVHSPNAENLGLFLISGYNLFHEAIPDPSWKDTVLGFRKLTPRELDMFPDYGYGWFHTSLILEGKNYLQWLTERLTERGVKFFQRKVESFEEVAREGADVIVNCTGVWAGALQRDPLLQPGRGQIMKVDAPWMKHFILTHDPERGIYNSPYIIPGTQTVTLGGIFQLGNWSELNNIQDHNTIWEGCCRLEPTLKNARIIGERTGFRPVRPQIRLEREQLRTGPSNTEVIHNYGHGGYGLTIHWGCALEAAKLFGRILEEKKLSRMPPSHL
Measured Property: IC50

• O=C([O-])c1ccccc1.[Na+] [sodium benzoate] = 7 µM

====

Biological target: CYP2C19 (Homo sapiens)
Sequence (P33261 whole entry, canonical isoform): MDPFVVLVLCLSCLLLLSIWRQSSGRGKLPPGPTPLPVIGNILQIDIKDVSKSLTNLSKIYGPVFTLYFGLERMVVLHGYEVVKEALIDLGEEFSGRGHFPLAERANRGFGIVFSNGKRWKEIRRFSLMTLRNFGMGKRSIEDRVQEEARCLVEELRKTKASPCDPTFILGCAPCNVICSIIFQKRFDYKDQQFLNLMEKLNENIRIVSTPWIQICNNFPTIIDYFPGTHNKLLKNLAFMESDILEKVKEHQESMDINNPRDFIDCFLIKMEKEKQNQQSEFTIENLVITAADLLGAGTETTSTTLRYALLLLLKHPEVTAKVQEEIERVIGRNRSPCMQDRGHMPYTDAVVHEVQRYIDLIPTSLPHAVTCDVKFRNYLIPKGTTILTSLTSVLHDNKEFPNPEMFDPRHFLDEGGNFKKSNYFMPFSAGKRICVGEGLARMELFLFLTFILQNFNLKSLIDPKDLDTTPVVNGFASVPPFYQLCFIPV
Assay: CYP isoform inhibition in human liver microsomes (Cyprotex)
Settings: human, human liver microsomes
Non-standard residues stand in square brackets, D forms with d. Residues, ends and D or L forms follow the SMILES beside them.
Measured Property: inhibition at 1 µM (%)

• CC(C)C[C@@H](NC(=O)[C@H](NC(=O)[C@H]1CCCN1)[C@H](C)O)C(=O)N[C@H](Cc1c[nH]cn1)C(=O)N[C@@H](C(=O)N[C@H](Cc1c[nH]cn1)C(=O)N[C@H](CC(N)=O)C(=O)N[C@H](CCCNC(=N)N)C(=O)N[C@H](CCCNC(=N)N)C(=O)N[C@H](CCCNC(=N)N)C(=O)N[C@H](CCCNC(=N)N)C(=O)N[C@H](CCCNC(=N)N)C(N)=O)[C@H](C)O [RD2, ptlhthnrrrrr] (H-[dP][dT][dL][dH][dT][dH][dN][dR][dR][dR][dR][dR]-NH2) = 2.47
